For each entry below, report its Kd value.
Molecular target: T1, cynomolgus serum albumin (cynomolgus)
T1 construct: also called CSA; cyno serum albumin
T1 sequence (A2V9Z4 25-608): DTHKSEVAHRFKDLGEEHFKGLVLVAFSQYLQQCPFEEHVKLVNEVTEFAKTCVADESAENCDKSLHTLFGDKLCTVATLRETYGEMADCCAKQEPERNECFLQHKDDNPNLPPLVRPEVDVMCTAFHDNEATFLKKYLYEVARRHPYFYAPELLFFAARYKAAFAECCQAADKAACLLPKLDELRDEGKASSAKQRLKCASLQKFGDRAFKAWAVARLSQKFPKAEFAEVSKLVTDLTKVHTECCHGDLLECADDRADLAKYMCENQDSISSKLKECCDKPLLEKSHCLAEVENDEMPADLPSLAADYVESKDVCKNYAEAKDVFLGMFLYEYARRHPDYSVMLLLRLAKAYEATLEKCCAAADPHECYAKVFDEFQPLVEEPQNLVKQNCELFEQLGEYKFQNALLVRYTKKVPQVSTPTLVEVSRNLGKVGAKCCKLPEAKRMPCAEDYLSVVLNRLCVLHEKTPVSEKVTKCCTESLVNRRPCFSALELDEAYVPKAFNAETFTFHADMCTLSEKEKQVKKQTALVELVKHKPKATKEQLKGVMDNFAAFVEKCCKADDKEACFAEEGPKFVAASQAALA
Assay: BLI (Octet), biotinylated albumin on SA sensor, pH 7.4
# output: bare number, implied unit nM

Name the recorded Kd for HSA-18 (designed binder, also called HSA-18 monomer) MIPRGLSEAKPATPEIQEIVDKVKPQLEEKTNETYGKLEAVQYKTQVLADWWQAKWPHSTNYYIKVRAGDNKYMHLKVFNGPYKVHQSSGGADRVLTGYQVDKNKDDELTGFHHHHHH .
106

Can you check HSA-41 (designed binder, also called HSA-41 parent; HSA-41 AH parent) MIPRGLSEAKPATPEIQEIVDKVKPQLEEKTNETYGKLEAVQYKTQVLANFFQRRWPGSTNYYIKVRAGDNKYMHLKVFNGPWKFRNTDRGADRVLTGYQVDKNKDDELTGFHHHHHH next?
71.5
